System: OVCAR-8 ovarian
Test: NCI-60 one-dose screen, 48 h
Settings: 10 µM unless noted
Protocol: Growth inhibition of the OVCAR-8 human tumor cell line is measured as a screen for anti-cancer activity. Cells are grown in 96 well plates and exposed to the test compound for 48 hours. Compounds are tested at a single concentration, which is 10^-5 M for most compounds. The reported endpoint is percent growth (GI% or GIPRCNT), where numbers from 0 - 100% represent growth inhibition, and numbers from -100% - 0 represent cell death. For example, a value of 40 represents 60% growth inhibition. […]
Compounds without any hit were thinned out: in the full panel of roughly 83,000, 20% have a hit. Calls of active or inactive are those of the source. The calls were made as follows: active = growth percent below 10; inactive = the rest.
Your reply should match one of these outcome classes. 1 (yes) for active, 0 (no) for inactive

# COMPOUND, CLASS
data = [
    ("Cc1cccc(CN(Nc2ccccc2)c2ccccc2)n1", "0 (no)"),
    ("CC(C)(C)n1cc(-c2ccnc(NCCNS(=O)(=O)c3cccc4ccccc34)c2)c(-c2cccc(O)c2)n1", "0 (no)"),
    ("CCOC(=O)c1c(C)nc2c(c1N)C(=O)C(=O)N2CCc1ccc(OC)c(OC)c1", "0 (no)"),
    ("CCOC(=O)CC1CSC(N/N=C/c2ccc(O)cc2)=N1 (centres undefined)", "0 (no)"),
]

Could you check what this test reported for C=CN(C(=O)N1CCN(c2cc3c(cc2F)c(=O)c(C(=O)O)cn3C2CC2)CC1)c1nc(-c2ccc(C)cc2)cs1 ? 0 (no)

Each compound tested received a call. Report the one for CN1CCN(CC(=O)N(C)c2ccc(N=C(c3ccccc3)c3c(O)[nH]c4ccc([N+](=O)[O-])cc34)cc2)CC1 . 0 (no)

I'd appreciate the recorded outcome for C#CCOc1cccc(Nc2ncnc3c(NC(=O)CCl)cccc23)c1 from this test. 1 (yes)

// outcome(item) with item = C#CCOc1ccc(C2=NN(CCCC)C3N=C(Cl)c4ncn(CCCC)c4N23)cc1OCC#C (centres undefined) 0 (no)

Recorded test outcome, item CN(C)c1ccc(/C=N/NC(=O)CSc2nc3sc4c(c3c(=O)n2-c2ccccc2)CCCCC4)cc1 0 (no)

---

system: NCI-H322M lung; test: NCI-60 one-dose screen, 48 h (100 = growth as untreated, 0 = no growth, -100 = all killed); details: 10 µM unless noted
Compounds without any hit were thinned out: in the full panel of roughly 83,000, 20% have a hit.
Provide the recorded growth for the entries that follow.
Answers are plain numbers, in %.

Recorded results for 8 compounds are shown here.
# COMPOUND, growth, %
records = [
    ("CC1=NC(=S)NC(c2ccccc2)/C1=C1/CC(c2ccccc2O)NN1 (centres undefined)", 101),
    ("COc1cccc(C2C(C#N)=C(N)Oc3c2ccc2ccccc32)c1 (centres undefined)", 41.7),
    ("C#CCOc1cccc(Nc2c(Cl)c(CCl)nc3ccc(Oc4ccccc4)cc23)c1", 83.7),
    ("Nc1nc(N)c2c(n1)NC(c1ccc3c(c1)OCO3)CC(c1cccc(Nc3ccncc3)c1)=N2 (centres undefined)", 96.9),
    ("COc1cc2ncnc(Nc3ccc(S(=O)(=O)Nc4cc(C)on4)cc3)c2cc1OCCCN1CCOCC1", 101),
    ("COc1ccc(C2=NN(C=O)C(c3ccc(Oc4nc5c(c(=O)n(C)c(=O)n5C)n4C)c(OC)c3)C2)cc1 (centres undefined)", 76.6),
    ("N#C/C(=N\\Nc1ccccc1)C(=O)Nc1cc(-c2ccccc2)nn1-c1ccccc1", 8.62),
    ("O=C(Nc1ccc(Oc2cccc(F)c2)c(Cl)c1)c1cnccn1", 46.3),
]

Form field: reported growth of CCNc1nc(-c2ccc(Cl)c(OC)c2)c(-c2ccnc(NCCNS(=O)(=O)c3ccc(Cl)cc3)n2)s1 44.9

---

Hi there, I'd appreciate the recorded growth for every entry that follows.
system: LOX IMVI melanoma; assay: NCI-60 one-dose screen, 48 h (100 = growth as untreated, 0 = no growth, -100 = all killed); details: 10 µM unless noted
Compounds without any hit were thinned out: in the full panel of roughly 83,000, 20% have a hit. Calls of active or inactive are those of the source. The calls were made as follows: active = growth percent below 10; inactive = the rest.

# CPD SMILES, growth
rows = [
    ("CCN(CC)CCN1C(=O)c2c(c(C)c3c(oc4cc(OC)ccc43)c2C)C1=O", "83.1% (inactive)"),
    ("N#C/C(Sc1nc2sc3c(c2c(=O)n1Cc1ccccc1)CCCC3)=C1/SC=C(c2ccc(Cl)cc2)N1c1ccccc1", "82.1% (inactive)"),
    ("CC1(C)CC[C@]2(CO)CC[C@]3(C)C(=CC[C@@H]4[C@@]5(C)CCNCC(C)(C)[C@@H]5CC[C@]43C)[C@@H]2C1", "76% (inactive)"),
]

// below: growth requested for another molecule
Entry O=C(Nc1ncc(Cc2ccc(Cl)cc2)s1)c1ccc2c(c1)OCCO2 has what growth? 31.3% (inactive)

---

Record form. Attribute: growth. Fill in for each entry.
Tested on: IGROV1 ovarian
Test: NCI-60 one-dose screen, 48 h (100 = growth as untreated, 0 = no growth, -100 = all killed)
Settings: 10 µM unless noted
Method: Growth inhibition of the IGROV1 human tumor cell line is measured as a screen for anti-cancer activity. Cells are grown in 96 well plates and exposed to the test compound for 48 hours. Compounds are tested at a single concentration, which is 10^-5 M for most compounds. The reported endpoint is percent growth (GI% or GIPRCNT), where numbers from 0 - 100% represent growth inhibition, and numbers from -100% - 0 represent cell death. For example, a value of 40 represents 60% growth inhibition. […]
About 83,000 compounds went through this panel and 20% of them were active in at least one assay; those are over-represented in the sample as a whole.
Answers are plain numbers, in %.

Some entries whose results are on file:
# COMPOUND, growth, %
data = [
    ("O=c1cc(-c2nccc3c2[nH]c2ccccc23)c2cc(Cl)ccc2o1", 61.3),
    ("Cc1ccc(-c2nn(CC(=O)N3CCOCC3)c(N)c2C#N)cc1", 106),
    ("Cn1ccnc1C(=O)/C=C/c1ccc(C(=O)Nc2c(F)c(F)c(F)c(F)c2F)cc1", 0.574),
    ("C#CCOc1ccc(C2=NN(C)C3N=C(Cl)c4ncn(C)c4N23)cc1OCC#C (stereo not given)", 102),
]

# input for lookup
// lookup growth for CCCS(=O)(=O)Nc1cccc(Nc2ncnc3cc(NC(=O)CCl)ccc23)c1Cl -52.6

---

test system: RPMI-8226 leukemia; experiment: NCI-60 one-dose screen, 48 h (100 = growth as untreated, 0 = no growth, -100 = all killed); conditions: 10 µM unless noted
About 83,000 compounds went through this panel and 20% of them were active in at least one assay; those are over-represented in the sample as a whole.
Mark not met for growth values under 70%, and met for everything at or above.

Record excerpt, results attached:
# COMPOUND, CLASS
records = [
    ("COc1nc2ccccc2cc1/C=C1/C=C(c2ccccc2)NC1=O", "not met"),
    ("O=C(/C=C\\c1ccc(O)c(O)c1)c1ccccc1O", "not met"),
    ("CCOC(=O)c1ccc2c(c1)c1c(C)c3cnccc3c(C)c1n2C", "not met"),
    ("Clc1nc(N2CCC[N+]3(CC2)CC[N+]2(CCCNCC2)CC3)nc(N2CCC[N+]3(CC2)CC[N+]2(CCCNCC2)CC3)n1 (stereo unspecified)", "met"),
    ("N#C/C(=C/C=C/c1ccccc1)S(=O)c1ccccc1 (stereo unspecified)", "not met"),
]

Could you please find out whether Cc1cc(N2CCOCC2)nc(N(CCCNc2ccnc3cc(Cl)ccc23)Cc2ccc3c(c2)OCO3)n1 has growth that meets 70% or exceeds it? not met

Reported growth at or above 70%? C#CCOc1cccc(Nc2c(Cl)c(CCl)nc3ccc(Oc4ccccc4)cc23)c1 not met

Can CC(C)=CC(=O)C1C(=O)c2ccccc2C1=O be said to have growth at or above 70%? met

Does the compound O=C(NC1CCCCCC1)c1ccc2c(=O)n3c(nc2c1)CCCCC3 have recorded growth that is 70% or more? met

---

system: 786-0 renal; assay: NCI-60 one-dose screen, 48 h (100 = growth as untreated, 0 = no growth, -100 = all killed); settings: 10 µM unless noted
The panel holds about 83,000 compounds, 20% with a hit somewhere; the sample as a whole holds those more often.
PROPERTY: growth (%)
Give bare numbers, in %.

Some solved entries appear below for comparison.
# MOLECULE, growth [%]
rows = [
    ("O=C1C2C(c3cccs3)C=C(c3ccc(Cl)cc3)N2C(=S)N1c1ccccc1 (stereo not drawn)", 102),
    ("COc1cc(OC)cc(C(=O)Nc2cnc(Nc3ccc(N4CCOCC4)nc3)nc2Oc2ccc(C(F)(F)F)cc2)c1", 54.8),
    ("Cc1nc2cccc(NCc3ccc(C(=O)NO)cc3)c2c(=O)n1-c1ccccc1", 54.5),
    ("CCOC(=O)c1ccc2c(c1)c1c(C)c3cnccc3c(C)c1n2C", -95.7),
    ("COC(=O)c1nc(-c2ccccc2)oc1S(=O)(=O)N1CCN(c2ccc(OC)cc2)CC1", 60.9),
]

I'm hoping you can list growth for every molecule here, please.
1. COc1ccc(-c2cc(-c3ccc(Cl)cc3)c(C#N)c(=O)n2CCCCC(=O)NO)cc1
2. C=C(c1ccc(OC)c(/C=C/C(=O)c2cc(OC)c(OC)c(OC)c2)c1)c1cc(OC)c(OC)c(OC)c1
3. C=C(CNCCc1ccc(O)cc1)[C@@H]1CC[C@]2(CO)CC[C@]3(C)[C@H](CC[C@@H]4[C@@]5(C)CCC(N)C(C)(C)[C@@H]5CC[C@]43C)[C@@H]12 (stereo partly drawn)

1. 80.2
2. -64.3
3. -87.3
